# Tested on: HOP-18
# test method notes: NCI tumour cell line growth inhibition, 48 h
Calls of active or inactive are those of the source. Cut-off read from the data, not from the text of the source: active = GI50 up to about 1.1 µM and inactive = higher.
Hi! Could you answer with just one of these? active, inactive

Ask: Just curious, what result did O=C(Oc1ccc2c(-c3ccccc3)c(C(=O)Nc3ccc(Cl)cc3)c(=O)oc2c1)c1ccccc1 get here?
Reply: inactive

Ask: Kindly provide the recorded test outcome for the following molecule: COc1ccc2cccc(C(=N)c3ccc(C)c4c3CCC4)c2c1
Reply: active

Ask: Query: recorded result category for N[C@H](COCc1ccccc1)c1ccccc1 in this test
Reply: inactive

* * *

# Test system: HOP-92
# test method notes: NCI tumour cell line growth inhibition, 48 h
The source made the active and inactive calls. Cut-off read from the data, not from the text of the source: active = GI50 up to about 1.1 µM and inactive = higher.
Classes to choose from: active, inactive

Observe how each entry below is paired with its result.
compound: Cc1ccc(C)c(NC(=O)CC2C(=O)Nc3ccccc3S2(=O)=O)c1 (stereo not given)
assigned label: inactive
//
compound: COc1ccc(N2C(=O)CC(=O)N(C(=O)CCCCCCCCC(=O)N3C(=O)CC(=O)N(c4ccc(OC)cc4)C3=S)C2=S)cc1
assigned label: inactive
//
compound: CCc1ccc(Nc2cc(=O)[nH]c(SCc3ccccc3)n2)cc1
assigned label: inactive
//
compound: CSc1c(C(=O)Nc2ccc(Cl)cc2)c(N)nn1-c1ccccc1
assigned label: inactive
//
compound: O=C1OC(c2ccccc2)=N/C1=C/NC(CO)C(=O)O (stereo not given)
assigned label: inactive
//
compound: CCN(CC)CCCOC(=O)/C=C/c1c(C)[nH]c(=O)[nH]c1=O
assigned label: inactive

Ask: Hi, sorry to bother you, what did the test record for O=C1CC(c2ccccc2)C2(C(=O)NC(=S)NC2=O)C(c2ccccc2)C1 (stereo not given) ?
Reply: inactive

Ask: Hi team, can someone confirm the assay call for Nc1nc2c(ncn2C2C=CC(COS(N)(=O)=O)C2)c(=O)[nH]1 (stereo not given) ?
Reply: inactive

Ask: I would be grateful if you could indicate the recorded call for CSC(=S)N(C)c1nc(N(C)C)s[s+]1 .
Reply: inactive

Ask: For COc1cc2cc(C(=O)N3CC(COS(C)(=O)=O)c4ccc(O)cc43)[nH]c2c(OC)c1OC (stereo not given) , what call appears in the results of this test?
Reply: active
